# Tested on: primary cultures of rat hippocampal neurons
# ASSAY_PROCEDURE: NMDA-induced neuronal death, trypan blue exclusion
# Format: cell-based
# SETTINGS: read-out: NMDA EC50 for neuronal death; chronic 16 hour NMDA exposure; +100 μM 3α5βS
ASSAY_ENDPOINT: EC50 (µM)
Give the value, in units of µM, as a plain number.

For reference, reported EC50 for CN[C@H](CC(=O)O)C(=O)O [NMDA, N-methyl-D-aspartate] stands at 15

###

# TARGET_ENTITY: NR1011/NR2A (Rattus norvegicus, UniProt P35439+Q00959)
# ASSAY_PROCEDURE: NMDA-induced currents of NR1 splice variants, Xenopus oocytes, Example 4
# Type: cell-based
# Parameters: expressed in transfected cells; host or cells: Xenopus oocytes injected with NR1011 and NR2A mRNA
# SETTINGS: read-out: NMDA EC50; NR1011/2A; pH 7.5; +100 μM 3α5βS
ASSAY_ENDPOINT: EC50 (µM)
Give the value, in units of µM, as a plain number.

For reference, reported EC50 for CN[C@H](CC(=O)O)C(=O)O [NMDA, N-methyl-D-aspartate] stands at 120

###

# TARGET_ENTITY: Penta-Mutant/NR2A (Rattus norvegicus, UniProt P35439+Q00959, K193A/K202A/R187A/R233A/R252A)
# ASSAY_PROCEDURE: NMDA-induced currents, Xenopus oocytes, Example 5
# SETTINGS: read-out: NMDA EC50; Penta-mutant/NR2A
ASSAY_ENDPOINT: EC50 (µM)
Give the value, in units of µM, as a plain number.

For reference, reported EC50 for CN[C@H](CC(=O)O)C(=O)O [NMDA, N-methyl-D-aspartate] stands at 55

###

# TARGET_ENTITY: NR1/NR2D (NR1100) (Rattus norvegicus, UniProt P35439+Q62645)
# Sequence (Q62645 28-1323, other chains not shown): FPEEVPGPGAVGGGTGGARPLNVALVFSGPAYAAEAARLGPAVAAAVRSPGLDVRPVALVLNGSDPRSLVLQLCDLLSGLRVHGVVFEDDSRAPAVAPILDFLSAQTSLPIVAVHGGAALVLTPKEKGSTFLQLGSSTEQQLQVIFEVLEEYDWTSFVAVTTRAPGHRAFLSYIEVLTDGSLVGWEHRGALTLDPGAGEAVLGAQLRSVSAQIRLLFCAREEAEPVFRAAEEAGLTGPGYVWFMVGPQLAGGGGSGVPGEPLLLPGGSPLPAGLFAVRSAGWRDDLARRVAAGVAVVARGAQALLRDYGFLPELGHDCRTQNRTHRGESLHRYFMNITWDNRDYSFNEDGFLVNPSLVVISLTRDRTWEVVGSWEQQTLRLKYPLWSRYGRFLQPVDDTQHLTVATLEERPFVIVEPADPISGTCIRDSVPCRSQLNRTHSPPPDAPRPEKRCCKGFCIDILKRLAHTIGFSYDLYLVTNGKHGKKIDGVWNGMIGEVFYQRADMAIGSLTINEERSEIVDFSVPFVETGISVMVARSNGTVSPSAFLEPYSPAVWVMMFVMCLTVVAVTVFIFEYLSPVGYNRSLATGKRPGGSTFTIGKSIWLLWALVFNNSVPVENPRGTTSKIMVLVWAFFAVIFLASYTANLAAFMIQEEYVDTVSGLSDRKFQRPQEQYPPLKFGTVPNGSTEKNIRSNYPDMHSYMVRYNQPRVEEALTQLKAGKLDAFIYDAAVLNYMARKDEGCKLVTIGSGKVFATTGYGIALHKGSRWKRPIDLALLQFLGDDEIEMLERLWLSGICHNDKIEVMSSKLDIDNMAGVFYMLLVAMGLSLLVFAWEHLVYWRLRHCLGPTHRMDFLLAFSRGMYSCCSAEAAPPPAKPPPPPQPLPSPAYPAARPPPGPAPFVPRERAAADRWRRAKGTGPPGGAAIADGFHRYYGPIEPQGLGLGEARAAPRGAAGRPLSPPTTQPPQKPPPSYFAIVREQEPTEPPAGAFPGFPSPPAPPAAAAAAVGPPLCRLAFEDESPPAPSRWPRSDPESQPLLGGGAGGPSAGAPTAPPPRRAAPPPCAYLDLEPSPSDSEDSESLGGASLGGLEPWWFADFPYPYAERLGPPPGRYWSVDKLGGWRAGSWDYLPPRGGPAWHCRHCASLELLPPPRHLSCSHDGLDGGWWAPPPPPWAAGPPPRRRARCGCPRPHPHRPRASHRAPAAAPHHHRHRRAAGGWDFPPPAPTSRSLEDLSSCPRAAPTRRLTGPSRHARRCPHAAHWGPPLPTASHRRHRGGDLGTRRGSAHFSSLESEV
# ASSAY_PROCEDURE: cell-based
Where a name gives a salt, the structure may show the parent alone.
ASSAY_ENDPOINT: pEC50
// field semantics: pEC50 = negative decimal log of concentration (mol/L)

For reference, reported pEC50 for CC(=O)[C@H]1CC[C@H]2[C@@H]3CC[C@@H]4C[C@H](OS(=O)(=O)O)CC[C@]4(C)[C@H]3CC[C@]12C [3α5βS, 3α5β-pregnanolone sulfate] stands at 4.85

###

# TARGET_ENTITY: NR1/NR2C (NR1100) (Rattus norvegicus, UniProt P35439+Q00961)
# Sequence (Q00961 20-1237, other chains not shown): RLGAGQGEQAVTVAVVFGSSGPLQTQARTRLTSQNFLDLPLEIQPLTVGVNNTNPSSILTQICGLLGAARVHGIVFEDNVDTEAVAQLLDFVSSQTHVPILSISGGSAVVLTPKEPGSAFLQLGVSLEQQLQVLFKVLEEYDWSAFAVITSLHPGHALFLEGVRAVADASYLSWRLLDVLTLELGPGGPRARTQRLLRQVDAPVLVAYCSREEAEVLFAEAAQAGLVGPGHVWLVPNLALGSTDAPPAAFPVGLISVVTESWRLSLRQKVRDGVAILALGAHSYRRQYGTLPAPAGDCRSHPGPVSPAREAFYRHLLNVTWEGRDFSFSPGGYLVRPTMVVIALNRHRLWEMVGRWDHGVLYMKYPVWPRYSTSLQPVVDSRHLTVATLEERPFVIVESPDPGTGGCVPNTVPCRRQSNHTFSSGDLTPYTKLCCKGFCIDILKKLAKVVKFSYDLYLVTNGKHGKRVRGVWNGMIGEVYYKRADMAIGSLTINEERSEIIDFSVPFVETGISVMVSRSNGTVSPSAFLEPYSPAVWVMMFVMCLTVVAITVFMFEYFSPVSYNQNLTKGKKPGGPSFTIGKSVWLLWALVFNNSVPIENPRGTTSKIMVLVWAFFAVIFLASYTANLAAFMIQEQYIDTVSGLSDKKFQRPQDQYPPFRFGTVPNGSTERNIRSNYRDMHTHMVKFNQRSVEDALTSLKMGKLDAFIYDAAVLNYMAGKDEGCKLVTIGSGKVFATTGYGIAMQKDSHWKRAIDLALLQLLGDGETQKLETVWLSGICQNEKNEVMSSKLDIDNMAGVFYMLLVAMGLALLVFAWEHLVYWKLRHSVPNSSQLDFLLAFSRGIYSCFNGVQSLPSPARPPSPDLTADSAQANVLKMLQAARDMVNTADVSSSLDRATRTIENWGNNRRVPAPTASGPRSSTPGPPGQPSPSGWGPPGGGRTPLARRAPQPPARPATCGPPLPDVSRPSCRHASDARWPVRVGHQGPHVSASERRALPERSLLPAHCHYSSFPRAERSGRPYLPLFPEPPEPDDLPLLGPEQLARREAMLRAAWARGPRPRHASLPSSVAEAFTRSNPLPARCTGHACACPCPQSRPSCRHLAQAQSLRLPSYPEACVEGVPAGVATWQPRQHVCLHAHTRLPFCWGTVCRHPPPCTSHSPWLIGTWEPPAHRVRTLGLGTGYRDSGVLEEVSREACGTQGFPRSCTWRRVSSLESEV
# SETTINGS: read-out: agonist EC50; NR1/NR2C; no PS
ASSAY_ENDPOINT: EC50 (nM)
Give the value, in units of nM, as a plain number.

For reference, reported EC50 for N[C@@H](CCC(=O)O)C(=O)O [L-glutamate] stands at 75

###

# TARGET_ENTITY: NR1100+NR2A NMDA receptor (Rattus norvegicus, UniProt P35439+Q00959)
# Construct: expressed in transfected cells; host or cells: Xenopus oocytes co-injected with NR1100 and NR2A cRNA
# Sequence (Q00959 23-1464, other chains not shown): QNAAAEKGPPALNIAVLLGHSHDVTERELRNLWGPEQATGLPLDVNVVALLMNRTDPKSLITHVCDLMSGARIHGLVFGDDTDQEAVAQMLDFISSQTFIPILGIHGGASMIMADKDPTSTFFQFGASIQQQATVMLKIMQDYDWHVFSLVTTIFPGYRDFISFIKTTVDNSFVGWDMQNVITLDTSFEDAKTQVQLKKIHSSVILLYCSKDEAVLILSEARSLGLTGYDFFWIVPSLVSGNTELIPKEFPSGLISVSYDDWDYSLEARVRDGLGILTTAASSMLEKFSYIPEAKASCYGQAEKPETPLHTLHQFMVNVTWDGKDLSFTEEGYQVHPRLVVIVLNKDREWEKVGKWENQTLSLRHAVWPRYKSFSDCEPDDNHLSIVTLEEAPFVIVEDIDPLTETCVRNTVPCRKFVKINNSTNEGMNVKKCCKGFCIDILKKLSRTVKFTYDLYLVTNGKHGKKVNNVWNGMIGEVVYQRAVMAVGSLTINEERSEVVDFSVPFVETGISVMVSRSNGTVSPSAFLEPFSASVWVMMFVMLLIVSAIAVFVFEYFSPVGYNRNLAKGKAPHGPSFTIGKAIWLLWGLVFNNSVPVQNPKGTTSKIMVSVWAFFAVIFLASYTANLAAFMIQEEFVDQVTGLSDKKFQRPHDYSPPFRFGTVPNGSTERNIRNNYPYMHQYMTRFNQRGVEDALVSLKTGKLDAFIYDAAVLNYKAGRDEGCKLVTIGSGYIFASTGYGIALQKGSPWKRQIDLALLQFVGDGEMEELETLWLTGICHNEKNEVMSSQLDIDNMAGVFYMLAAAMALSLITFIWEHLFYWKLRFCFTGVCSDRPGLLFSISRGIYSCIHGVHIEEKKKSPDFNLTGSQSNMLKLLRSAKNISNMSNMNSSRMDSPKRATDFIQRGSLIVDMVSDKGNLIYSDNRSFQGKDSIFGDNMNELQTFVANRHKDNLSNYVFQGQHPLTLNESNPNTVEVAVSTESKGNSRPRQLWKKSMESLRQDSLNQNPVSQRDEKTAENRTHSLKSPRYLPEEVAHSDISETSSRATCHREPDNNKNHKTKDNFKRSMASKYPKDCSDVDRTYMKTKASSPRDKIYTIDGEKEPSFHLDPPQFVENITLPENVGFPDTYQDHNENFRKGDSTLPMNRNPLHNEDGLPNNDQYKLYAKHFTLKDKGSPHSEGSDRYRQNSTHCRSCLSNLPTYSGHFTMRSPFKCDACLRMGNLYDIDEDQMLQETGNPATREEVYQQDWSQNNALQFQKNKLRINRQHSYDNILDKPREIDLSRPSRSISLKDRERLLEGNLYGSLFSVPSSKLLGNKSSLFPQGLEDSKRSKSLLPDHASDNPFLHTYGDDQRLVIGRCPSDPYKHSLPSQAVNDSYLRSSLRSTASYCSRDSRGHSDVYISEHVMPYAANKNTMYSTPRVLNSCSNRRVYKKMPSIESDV
# ASSAY_PROCEDURE: NMDA-induced current (INMDA), Xenopus oocytes, Example 2
# Format: cell-based
# SETTINGS: 100 μM NMDA, 100 μM steroid
ASSAY_ENDPOINT: potentiation of INMDA

For reference, reported potentiation of INMDA for CC(=O)[C@H]1CC[C@H]2[C@@H]3CC=C4C[C@@H](O)CC[C@]4(C)[C@H]3CC[C@]12C stands at 5±2%

###

# TARGET_ENTITY: NR1/NR2C (NR1100) (Rattus norvegicus, UniProt P35439+Q00961)
# SETTINGS: read-out: agonist EC50; NR1/NR2C; +100 μM PS
ASSAY_ENDPOINT: pEC50
// field semantics: pEC50 = negative decimal log of concentration (mol/L)

CN[C@H](CC(=O)O)C(=O)O [NMDA, N-methyl-D-aspartate] :: 4.82

Moving on to the next compound.
For reference, reported pEC50 for N[C@@H](CCC(=O)O)C(=O)O [L-glutamate] stands at 7.22
